FYI, the data here is from patent US10233180B2.

# System: human colon cancer cell strain HCT-116
# Assay notes: MTT assay, inhibition of tumor cell growth in vitro, 72 h
# Type: cell-based
# Condition info: Homo sapiens, HCT-116, MTT, read-out: Antitumor proliferative activities of tumor cell (IC50, μM) HCT-116 (converted)
Measured quantity: log10 of IC50 (log10 of the value in µM)

Molecule	log10 of IC50
Cn1ncc(Cl)c1-c1cc(C(=O)N[C@@H]2CNC(CCN3CCOCC3)C[C@H]2c2ccc(Cl)c(Cl)c2)oc1Cl (some centres unmarked)	-0.11
Cc1nc(C(=O)N[C@H]2CNCC[C@@H]2c2ccc(F)c(F)c2)ncc1-c1c(Cl)cnn1C (racemic)	0.31
CC1CCC([C@H]2CCNC[C@@H]2NC(=O)c2ncc(-c3c(Cl)cnn3C)c(Cl)n2)CC1 (some centres unmarked)	1.03
Cn1nccc1-c1coc(C(=O)N[C@H]2CNCC[C@@H]2c2ccccc2)n1 (racemic)	0.66
Cn1ncc(Cl)c1-c1ccc(C(=O)N[C@@H]2CNCC[C@H]2c2ccc(F)c(F)c2)cc1-c1ccoc1	0.75

====

The compounds listed here are annotated with their IC50.
# System: human colon cancer cell strain HCT-116
# Assay notes: MTT assay, inhibition of tumor cell growth in vitro, 72 h
# Type: cell-based
# Condition info: Homo sapiens, HCT-116, MTT, read-out: Antitumor proliferative activities of tumor cell (IC50, μM) HCT-116 (converted)

Compound	IC50 [µM]
Cn1ncc(Cl)c1-c1cnc(C(=O)N[C@@H]2CNCC[C@H]2c2ccc(F)c(F)c2)nc1	5.82
Cn1ncc(Cl)c1-c1ccc(C(=O)N[C@@H]2CNCC[C@H]2c2cccc(F)c2)cc1N	4.08
Cc1cnn(C)c1-c1cnc(C(=O)N[C@H]2CNC[C@@H]2c2ccc(C(F)(F)F)cc2)cc1F (racemic)	11.1

====

# System: Human ovarian cancer cell strain OVCAR-8
# Assay notes: MTT assay, inhibition of tumor cell growth in vitro, 72 h
# Format: cell-based
# Condition info: Homo sapiens, OVCAR-8, MTT, read-out: Antitumor proliferative activities of tumor cell (IC50, μM) OVCAR-8
The molecules listed here are annotated with their log10(IC50).
Measured quantity: log10(IC50) (log10 of the value in µM)

Molecule	Assayed target	Measured quantity	Measured
C=CCC1C[C@@H](c2ccc(Cl)c(Cl)c2)[C@H](NC(=O)c2cc(-c3c(Cl)cnn3C)c(Cl)o2)CN1 (some centres unmarked)	Human ovarian cancer cell strain OVCAR-8	log10(IC50)	0.01
Cn1ncc(Cl)c1-c1coc(C(=O)N[C@H]2CNCC[C@@H]2c2ccc(Cl)cc2)c1 (racemic)	Human ovarian cancer cell strain OVCAR-8	log10(IC50)	0.09
CCc1cnn(C)c1-c1ccc(C(=O)N[C@@H]2CNCC[C@H]2c2cccc(F)c2)s1	Human ovarian cancer cell strain OVCAR-8	log10(IC50)	0.03
Cn1ncnc1-c1cc(C(=O)N[C@H]2CNCC[C@@H]2c2ccc(C(F)(F)F)cc2)oc1Br (racemic)	Human ovarian cancer cell strain OVCAR-8	log10(IC50)	1.11
CCc1cc(C(=O)N[C@@H]2CNCC[C@H]2c2ccc(C(F)(F)F)cc2)cnc1-c1c(Br)cnn1C	Human ovarian cancer cell strain OVCAR-8	log10(IC50)	0.21

====

The molecules listed here are annotated with their IC50.
# Tested on: Human ovarian cancer cell strain OVCAR-8
# Assay notes: MTT assay, inhibition of tumor cell growth in vitro, 72 h
# Assay type: cell-based
# Condition info: Homo sapiens, OVCAR-8, MTT, read-out: Antitumor proliferative activities of tumor cell (IC50, μM) OVCAR-8

Molecule	IC50 / µM
C[C@H]1CNC[C@@H](NC(=O)c2cc(-c3c(Cl)cnn3C)c(Cl)s2)[C@@H]1c1cccc(F)c1	1.2
Cc1nc(C(=O)N[C@H]2CNCC[C@@H]2C2CCCNC2)ccc1-c1c(Br)cnn1C (mixture of isomers)	7.88
Cn1nccc1-c1ccc(C(=O)N[C@@H]2CNCC[C@H]2c2ccc(F)c(F)c2)cc1	3.68
Cn1ncc(Br)c1-c1csc(C(=O)N[C@@H]2CNCC[C@H]2c2ccc(F)c(F)c2)c1	9.71
Cn1ncc(Cl)c1-c1ccc(C(=O)N[C@@H]2CNCC[C@H]2c2cccc(F)c2)cc1	2.45
